Entry source: patent US20260042774A1

Test system: human gastric cancer cells NCI-N87
Experiment: Tumor cell growth inhibitory activity (CCK-8), NCI-N87
Type: cell-based
Settings: NCI-N87 cells, 72 h incubation, CCK-8; read-out: IC50 (nM) for inhibiting the growth of tumor cells, NCI-N87
property: IC50 (nM)
Give the value, in units of nM, as a plain number.

Sure, the documented IC50 for CC[C@@]1(O)C(=O)OCc2c1cc1n(c2=O)Cc2c-1nc1cc(F)c(C)c3c1c2[C@@H](NC(=O)CO)CC3 [Dxd, reference compound] is 2.48

----------
Test system: NCI-H1975
Experiment: Tumor cell growth inhibitory activity, NCI-H1975
Assay type: cell-based
Details: Homo sapiens; NCI-H1975 cells; read-out: IC50 (nM) for inhibiting the growth of tumor cells, NCI-H1975
Some compounds, each annotated with its measured log10(IC50).
All values: log10 IC50 [nM].

# example entries with known answers
CC[C@@]1(O)C(=O)OCc2c1cc1n(c2=O)Cc2c-1nc1cc(F)c(C)cc1c2CCNC1CCOCC1    2.39
CC[C@@]1(O)C(=O)OCc2c1cc1n(c2=O)Cc2c-1nc1cc(F)c(C)cc1c2CCN1CCNCC1    1.89
CC[C@@]1(O)C(=O)OCc2c1cc1n(c2=O)Cc2c-1nc1cc(F)c(F)cc1c2CCNC1CCC(OC)CC1 (stereo partly shown)    2.58

Sure, the documented log10(IC50) for CC[C@@]1(O)C(=O)OCc2c1cc1n(c2=O)Cc2c-1nc1cc(F)c(C)cc1c2CCNC1CCC(OC)CC1 (stereo partly shown) is 1.96

Sure, the documented log10(IC50) for CC[C@@]1(O)C(=O)OCc2c1cc1n(c2=O)Cc2c-1nc1cc(F)c(C)cc1c2CCN[C@@H](C)CCO is 2.08

Sure, the documented log10(IC50) for CC[C@@]1(O)C(=O)OCc2c1cc1n(c2=O)Cc2c-1nc1cc(F)c(F)cc1c2CCNC1CCC(O)CC1 (stereo partly shown) is 1.93

Sure, the documented log10(IC50) for CC[C@@]1(O)C(=O)OCc2c1cc1n(c2=O)Cc2c-1nc1cc3c(cc1c2CCN(C(=O)CO)[C@@H](C)COC)OCO3 is 1.19

----------
Tested on: MDA-MB-231
Assay: Tumor cell growth inhibitory activity, MDA-MB-231
Type: cell-based
Settings: MDA-MB-231 cells; read-out: IC50 (nM) for inhibiting the growth of tumor cells, MDA-MB-231
property: IC50 (nM)
Give the value, in units of nM, as a plain number.

Sure, the documented IC50 for CC[C@@]1(O)C(=O)OCc2c1cc1n(c2=O)Cc2c-1nc1cc(F)c(C)c3c1c2[C@@H](NC(=O)CO)CC3 [Dxd, reference compound] is 135

----------
Some compounds, each annotated with its measured log10 of IC50.
Tested on: NCI-H1975
Assay: Tumor cell growth inhibitory activity, NCI-H1975
Format: cell-based
Conditions: Homo sapiens; NCI-H1975 cells; read-out: IC50 (nM) for inhibiting the growth of tumor cells, NCI-H1975
All values: log10 IC50 [nM].

CC[C@@]1(O)C(=O)OCc2c1cc1n(c2=O)Cc2c-1nc1cc(F)c(F)cc1c2CCNC1CCOCC1 [Compound 13]    0.99

Sure, the documented log10 of IC50 for CC[C@@]1(O)C(=O)OCc2c1cc1n(c2=O)Cc2c-1nc1cc(F)c(C)cc1c2CCNC(=O)C(F)F [Compound 2] is 2.00

Sure, the documented log10 of IC50 for CC[C@@]1(O)C(=O)OCc2c1cc1n(c2=O)Cc2c-1nc1cc3c(cc1c2CCNCCOC)OCCO3 [Compound 42] is 1.42

Sure, the documented log10 of IC50 for CC[C@@]1(O)C(=O)OCc2c1cc1n(c2=O)Cc2c-1nc1cc3c(cc1c2CCNC1CCC(OC)CC1)OCCO3 (stereo partly shown) [Compound 44] is 1.43

Sure, the documented log10 of IC50 for CC[C@@]1(O)C(=O)OCc2c1cc1n(c2=O)Cc2c-1nc1cc(F)c(C)cc1c2CCNCCN=[N+]=[N-] [Compound 8] is 1.27

Sure, the documented log10 of IC50 for CC[C@@]1(O)C(=O)OCc2c1cc1n(c2=O)Cc2c-1nc1cc(F)c(C)cc1c2CCNC1CCC(O)CC1 (stereo partly shown) [Compound 6] is 2.47

Sure, the documented log10 of IC50 for CC[C@@]1(O)C(=O)OCc2c1cc1n(c2=O)Cc2c-1nc1cc3c(cc1c2CCNC1CCOCC1)OCCO3 [Compound 43] is 1.77

----------
System: NCI-H1975
Test: Tumor cell growth inhibitory activity, NCI-H1975
Format: cell-based
Details: Homo sapiens; NCI-H1975 cells; read-out: IC50 (nM) for inhibiting the growth of tumor cells, NCI-H1975
property: log10 of IC50 (log10 of the value in nM)
All values: log10 IC50 [nM].

# example entries with known answers
CC[C@@]1(O)C(=O)OCc2c1cc1n(c2=O)Cc2c-1nc1cc3c(cc1c2CCN[C@@H](C)COC)OCCO3    2.03
CC[C@@]1(O)C(=O)OCc2c1cc1n(c2=O)Cc2c-1nc1cc(F)c(C)cc1c2CCNC(C)=O    2.56
CC[C@@]1(O)C(=O)OCc2c1cc1n(c2=O)Cc2c-1nc1cc(F)c(F)cc1c2CCNCCN=[N+]=[N-]    2.06
CC[C@@]1(O)C(=O)OCc2c1cc1n(c2=O)Cc2c-1nc1cc(F)c(F)cc1c2CCN[C@@H](C)COC    1.10

--- query ---
Sure, the documented log10 of IC50 for C[C@@]1(O)C(=O)OCc2c1cc1n(c2=O)Cc2c-1nc1cc3c(cc1c2CCNC(=O)C(F)F)OCO3 is 1.59

----------
Tested on: Human esophageal cancer cells OE33
Assay: Tumor cell growth inhibitory activity (CCK-8), OE33
Type: cell-based
Details: Homo sapiens, OE33, 72 h, read-out: IC50 (nM) for inhibiting the growth of tumor cells, OE33, OE33 cells, 72 h incubation, CCK-8
Some molecules, each annotated with its measured IC50.
Give the value, in units of nM, as a plain number.

# example entries with known answers
CC[C@@]1(O)C(=O)OCc2c1cc1n(c2=O)Cc2c-1nc1cc3c(cc1c2CCNc1ncn[nH]1)OCO3    24.2
CC[C@@]1(O)C(=O)OCc2c1cc1n(c2=O)Cc2c-1nc1cc3c(cc1c2CCNC(=O)CN=[N+]=[N-])OCO3    25.2
CC[C@@]1(O)C(=O)OCc2c1cc1n(c2=O)Cc2c-1nc1cc3c(cc1c2CCNS(C)(=O)=O)OCO3    199
CC[C@@]1(O)C(=O)OCc2c1cc1n(c2=O)Cc2c-1nc1cc3c(cc1c2CCN[C@H]1CCOC1)OCO3    2.18
CC[C@@]1(O)C(=O)OCc2c1cc1n(c2=O)Cc2c-1nc1cc3c(cc1c2CCN(CC(F)F)C(=O)CO)OCO3    11.9
CC[C@@]1(O)C(=O)OCc2c1cc1n(c2=O)Cc2c-1nc1cc3c(cc1c2CCN[C@@H](C)CN=[N+]=[N-])OCO3    1.4

Sure, the documented IC50 for CC[C@@]1(O)C(=O)OCc2c1cc1n(c2=O)Cc2c-1nc1cc3c(cc1c2CCNC1CCC(O)CC1)OCO3 (stereo partly drawn) is 129

Sure, the documented IC50 for CC[C@@]1(O)C(=O)OCc2c1cc1n(c2=O)Cc2c-1nc1cc3c(cc1c2CCN[C@@H]1CCOC1)OCO3 is 2.94

Sure, the documented IC50 for CC[C@@]1(O)C(=O)OCc2c1cc1n(c2=O)Cc2c-1nc1cc3c(cc1c2CCNC1CCC(OC)CC1)OCO3 (stereo partly drawn) is 7.9

Sure, the documented IC50 for CC[C@@]1(O)C(=O)OCc2c1cc1n(c2=O)Cc2c-1nc1cc3c(cc1c2CCNCC(F)F)OCO3 is 0.56

Sure, the documented IC50 for CC[C@@]1(O)C(=O)OCc2c1cc1n(c2=O)Cc2c-1nc1cc3c(cc1c2CCNC1CCOCC1)OCO3 is 4.89

Sure, the documented IC50 for CC[C@@]1(O)C(=O)OCc2c1cc1n(c2=O)Cc2c-1nc1cc3c(cc1c2CCN[C@@H](C)CO)OCO3 is 49.6
